Data provenance is ChEMBL document CHEMBL1944509.

Exercise: for every item that follows, state its recorded concentration at 2 h.
METHOD DESCRIPTION: Drug level in ICR mouse brain at 5 mg/kg, iv after 2 hrs by HPLC/MS/MS analysis
Type: ADME, organism-based
Parameters: dose 5 mg/kg, route intravenous
ASSAY CONTEXT: read-out: Drug uptake
Return type: number; implicit unit ng/g.

Consider the compound shown here: `CC(C)Cc1ccc([C@H](CF)C(=O)O)cc1` What is its recorded concentration at 2 h? 64.9

Consider the compound shown here: `CC(C)Cc1ccc([C@H](C)C(=O)O)cc1` What is its recorded concentration at 2 h? 123

====

SUBJECT OF TEST: Prostaglandin G/H synthase 1 (Homo sapiens)
Sequence (P23219 whole entry): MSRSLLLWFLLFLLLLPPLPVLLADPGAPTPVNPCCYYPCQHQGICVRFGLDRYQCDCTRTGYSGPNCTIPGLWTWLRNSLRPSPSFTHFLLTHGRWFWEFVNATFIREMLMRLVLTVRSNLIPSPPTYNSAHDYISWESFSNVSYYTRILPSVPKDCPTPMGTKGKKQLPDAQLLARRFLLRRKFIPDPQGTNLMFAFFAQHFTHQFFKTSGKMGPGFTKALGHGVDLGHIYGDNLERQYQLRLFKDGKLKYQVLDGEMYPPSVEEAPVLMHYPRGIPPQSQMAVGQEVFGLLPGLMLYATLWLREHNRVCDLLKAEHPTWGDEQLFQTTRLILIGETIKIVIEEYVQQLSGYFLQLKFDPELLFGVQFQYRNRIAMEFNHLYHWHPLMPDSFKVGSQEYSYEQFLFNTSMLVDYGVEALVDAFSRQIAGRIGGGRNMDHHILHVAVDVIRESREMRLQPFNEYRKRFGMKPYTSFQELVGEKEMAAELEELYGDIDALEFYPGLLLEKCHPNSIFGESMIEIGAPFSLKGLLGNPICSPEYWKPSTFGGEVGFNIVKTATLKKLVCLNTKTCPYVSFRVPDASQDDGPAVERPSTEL
METHOD DESCRIPTION: Inhibition of COX1 in human HEL 92.1.7 cells assessed as thromboxane B2 production incubated for 30 mins before arachidonic acid addition measured after 15 mins by ELISA
METRIC: IC50
Please format your answer as a value with the unit trailing.

Form entry - test system: Prostaglandin G/H synthase 1 (Homo sapiens); read-out: IC50; molecule: `CC(C)Cc1ccc([C@H](CF)C(=O)O)cc1` 1.23 nM

====

METHOD DESCRIPTION: Drug level in ICR mouse brain at 10 mg/kg, po after 2 hrs by HPLC/MS/MS analysis
Assay type: ADME, organism-based
Set-up: dose 10 mg/kg, route oral
ASSAY CONTEXT: read-out: Drug uptake
METRIC: concentration at 2 h (ng/g)
Return type: number; implicit unit ng/g.

Consider the molecule shown here: `CC(C)Cc1ccc([C@H](C)C(=O)O)cc1` What is its recorded concentration at 2 h? 340

Consider the molecule shown here: `CC(C)Cc1ccc([C@H](CF)C(=O)O)cc1` What is its recorded concentration at 2 h? 162

====

SUBJECT OF TEST: Prostaglandin G/H synthase 2 (Homo sapiens, UniProt P35354)
Sequence (P35354 whole entry): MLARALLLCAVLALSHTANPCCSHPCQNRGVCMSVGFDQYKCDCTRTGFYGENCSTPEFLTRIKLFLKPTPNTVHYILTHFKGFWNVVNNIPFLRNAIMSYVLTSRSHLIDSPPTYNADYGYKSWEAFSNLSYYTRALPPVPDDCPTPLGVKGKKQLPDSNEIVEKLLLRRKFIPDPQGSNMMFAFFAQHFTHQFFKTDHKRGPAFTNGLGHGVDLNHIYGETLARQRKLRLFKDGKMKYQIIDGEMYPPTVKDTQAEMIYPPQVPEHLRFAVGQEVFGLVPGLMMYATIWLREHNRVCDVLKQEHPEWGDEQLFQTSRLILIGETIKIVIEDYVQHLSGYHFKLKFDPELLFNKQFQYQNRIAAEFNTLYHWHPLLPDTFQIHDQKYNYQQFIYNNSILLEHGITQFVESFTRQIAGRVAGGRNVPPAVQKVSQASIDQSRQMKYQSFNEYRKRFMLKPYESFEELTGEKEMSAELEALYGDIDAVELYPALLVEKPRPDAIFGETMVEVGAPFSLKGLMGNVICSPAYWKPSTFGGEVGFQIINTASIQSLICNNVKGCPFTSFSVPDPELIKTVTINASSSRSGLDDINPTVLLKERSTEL
METHOD DESCRIPTION: Inhibition of COX2 in LPS-stimulated and PMA-treated human U937 cells assessed as PGE2 production after 15 mins by ELISA
METRIC: pIC50
Note on units: pIC50 is unitless, being -log10 of a concentration expressed in mol/L.

Form entry - test system: Prostaglandin G/H synthase 2 (Homo sapiens, UniProt P35354); read-out: pIC50; compound: `CC(C)Cc1ccc([C@H](CF)C(=O)O)cc1` 6.28

====

METHOD DESCRIPTION: Plasma concentration in ICR mouse at 5 mg/kg, iv after 4 hrs by HPLC/MS/MS analysis
Format: ADME, organism-based
Set-up: dose 5 mg/kg, route intravenous
METRIC: concentration at 4 h (ng/mL)
Return type: number; implicit unit ng/mL.

Consider the compound shown here: `CC(C)Cc1ccc([C@H](C)C(=O)O)cc1` What is its recorded concentration at 4 h? 927

Consider the compound shown here: `CC(C)Cc1ccc([C@H](CF)C(=O)O)cc1` What is its recorded concentration at 4 h? 206

====

Exercise: for every item that follows, state its recorded concentration at 2 h.
METHOD DESCRIPTION: Plasma concentration in ICR mouse at 10 mg/kg, po after 2 hrs by HPLC/MS/MS analysis
Format: ADME, organism-based
Design: dose 10 mg/kg, route oral
Return type: number; implicit unit ng/mL.

Consider the molecule shown here: `CC(C)Cc1ccc([C@H](C)C(=O)O)cc1` What is its recorded concentration at 2 h? 15800

Consider the molecule shown here: `CC(C)Cc1ccc([C@H](CF)C(=O)O)cc1` What is its recorded concentration at 2 h? 5310

====

METHOD DESCRIPTION: Drug level in ICR mouse brain at 5 mg/kg, iv after 1 hr by HPLC/MS/MS analysis
Assay type: ADME, organism-based
Design: dose 5 mg/kg, route intravenous
ASSAY CONTEXT: read-out: Drug uptake
METRIC: concentration at 1 h
Please format your answer as a value with the unit trailing.

Consider the molecule shown here: `CC(C)Cc1ccc([C@H](CF)C(=O)O)cc1` What is its recorded concentration at 1 h? 232 ng/g

Consider the molecule shown here: `CC(C)Cc1ccc([C@H](C)C(=O)O)cc1` What is its recorded concentration at 1 h? 251 ng/g

====

SUBJECT OF TEST: Prostaglandin G/H synthase 1 (Ovis aries)
Sequence (P05979 whole entry): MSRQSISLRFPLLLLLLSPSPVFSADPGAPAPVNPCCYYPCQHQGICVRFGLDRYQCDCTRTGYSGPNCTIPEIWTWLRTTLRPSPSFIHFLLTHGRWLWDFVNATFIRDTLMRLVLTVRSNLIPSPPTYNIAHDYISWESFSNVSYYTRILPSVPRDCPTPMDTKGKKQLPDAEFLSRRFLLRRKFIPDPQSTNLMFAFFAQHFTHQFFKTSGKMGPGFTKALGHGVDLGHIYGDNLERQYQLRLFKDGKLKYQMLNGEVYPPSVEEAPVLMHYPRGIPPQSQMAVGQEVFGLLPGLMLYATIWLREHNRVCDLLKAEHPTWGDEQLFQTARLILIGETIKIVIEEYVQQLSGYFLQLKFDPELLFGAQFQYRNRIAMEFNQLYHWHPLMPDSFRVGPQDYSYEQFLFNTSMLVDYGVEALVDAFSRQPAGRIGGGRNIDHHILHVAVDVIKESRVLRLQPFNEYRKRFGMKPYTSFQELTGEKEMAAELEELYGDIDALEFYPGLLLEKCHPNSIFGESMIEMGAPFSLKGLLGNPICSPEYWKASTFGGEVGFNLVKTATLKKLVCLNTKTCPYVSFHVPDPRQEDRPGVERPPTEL
METRIC: IC50 (nM)
Return type: number; implicit unit nM.

Consider the molecule shown here: `CC(C)Cc1ccc([C@H](CF)C(=O)O)cc1` What is its recorded IC50? 500

====

METHOD DESCRIPTION: Clearance in ICR mouse at 5 mg/kg, iv
Format: ADME, organism-based
Parameters: dose 5 mg/kg, route intravenous
ASSAY CONTEXT: in vivo
METRIC: clearance (mL/min/kg)
Return type: number; implicit unit mL/min/kg.

Consider the compound shown here: `CC(C)Cc1ccc([C@H](CF)C(=O)O)cc1` What is its recorded clearance? 3.5

====

METHOD DESCRIPTION: Tmax in ICR mouse at 10 mg/kg, po
Format: ADME, organism-based
Set-up: dose 10 mg/kg, route oral
ASSAY CONTEXT: in vivo
METRIC: Tmax (min)
Return type: number; implicit unit min.

Consider the compound shown here: CC(C)Cc1ccc([C@H](C)C(=O)O)cc1 [DEXIBUPROFEN] What is its recorded Tmax? 4.8

Consider the compound shown here: `CC(C)Cc1ccc([C@H](CF)C(=O)O)cc1` What is its recorded Tmax? 15

====

METHOD DESCRIPTION: Drug level in ICR mouse brain at 5 mg/kg, iv after 4 hrs by HPLC/MS/MS analysis
Type: ADME, organism-based
Set-up: dose 5 mg/kg, route intravenous
ASSAY CONTEXT: read-out: Drug uptake
METRIC: concentration at 4 h (ng/g)
Return type: number; implicit unit ng/g.

Consider the compound shown here: CC(C)Cc1ccc([C@H](C)C(=O)O)cc1 [DEXIBUPROFEN] What is its recorded concentration at 4 h? 41.5

====

Exercise: for every item that follows, state its recorded concentration at 0.083 h.
METHOD DESCRIPTION: Drug level in ICR mouse brain at 10 mg/kg, po after 0.083 hrs by HPLC/MS/MS analysis
Format: ADME, organism-based
Set-up: dose 10 mg/kg, route oral
ASSAY CONTEXT: read-out: Drug uptake
Return type: number; implicit unit ng/g.

Consider the compound shown here: `CC(C)Cc1ccc([C@H](CF)C(=O)O)cc1` What is its recorded concentration at 0.083 h? 1160

Consider the compound shown here: CC(C)Cc1ccc([C@H](C)C(=O)O)cc1 [DEXIBUPROFEN] What is its recorded concentration at 0.083 h? 1340
